SYSTEM TESTED: Cdc42 WT (Homo sapiens)
Construct: purchased Cytoskeleton
TEST: Bead-based flow cytometry dose response, BODIPY-FL-GTP binding
ASSAY CONDITIONS: in the presence of Mg ions; read-out: EC50 for Cdc42 wt
pEC50: −log10 of the molar value.
RECORDED ENDPOINT: pEC50

## Input pEC50 lookup needed for COc1ccc(C2CC(c3ccccc3)=NN2c2ccc(S(N)(=O)=O)cc2)cc1 (stereo not shown) , thanks.
## Output ~5.40

====

SYSTEM TESTED: Cdc42 ACT (Cdc42Q61L) (Homo sapiens, UniProt P60953, Q61L)
Sequence (P60953 whole entry Q61L): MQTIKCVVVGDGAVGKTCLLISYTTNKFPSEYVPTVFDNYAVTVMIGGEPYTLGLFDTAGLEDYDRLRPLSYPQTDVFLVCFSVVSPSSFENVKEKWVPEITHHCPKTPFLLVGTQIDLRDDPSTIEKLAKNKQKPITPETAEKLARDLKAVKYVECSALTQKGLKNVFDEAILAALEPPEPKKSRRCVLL
TEST: Bead-based flow cytometry dose response, BODIPY-FL-GTP binding
ASSAY CONDITIONS: Table 6, R3 analogs; read-out: Cdc42 ACT EC50
Some compounds, each annotated with its measured EC50.
Hi! Could you send only the number? It should be in µM, unit omitted.

>  <COMPOUND>
NS(=O)(=O)c1ccc(N2N=C(c3ccccc3)CC2c2ccccc2)cc1 (stereo not shown)

>  <EC50 (µM)>
16.8

$$$$
>  <COMPOUND>
COc1ccccc1C1CC(c2ccccc2)=NN1c1ccc(S(N)(=O)=O)cc1 (stereo not shown)

>  <EC50 (µM)>
78.9

$$$$
>  <COMPOUND>
NS(=O)(=O)c1ccc(N2N=C(c3ccccc3)CC2c2ccccc2Cl)cc1 (stereo not shown)

>  <EC50 (µM)>
7.4

$$$$
>  <COMPOUND>
NS(=O)(=O)c1ccc(N2N=C(c3ccccc3)CC2c2ccc(Cl)cc2)cc1 (stereo not shown)

>  <EC50 (µM)>
3.6

$$$$

## Input Entry NS(=O)(=O)c1ccc(N2N=C(c3ccccc3)CC2c2cccc(Br)c2)cc1 (stereo not shown) : reported EC50 = ?
## Output 3.7

====

SYSTEM TESTED: Cdc42 ACT (Cdc42Q61L) (Homo sapiens, UniProt P60953, Q61L)
TEST: Bead-based flow cytometry dose response, BODIPY-FL-GTP binding
EC50 values by entry
Quick note: give the figure in µM, leave out the unit.

>  <COMPOUND>
COc1ccc(C2CC(c3ccccc3)=NN2c2ccc(S(N)(=O)=O)cc2)cc1OC (centres unmarked) [CID 2971684]

>  <UNIT>
µM

>  <EC50>
6.1

$$$$

## Input Requested read-out: EC50. Entry: COc1ccc(C2CC(c3cccs3)=NN2c2ccc(S(N)(=O)=O)cc2)cc1 (centres unmarked) [CID 44143712]
## Output 4

====

Emax for assorted molecules
SYSTEM TESTED: Cdc42 WT (Homo sapiens, UniProt P60953)
Construct: purchased Cytoskeleton
Sequence (P60953 whole entry): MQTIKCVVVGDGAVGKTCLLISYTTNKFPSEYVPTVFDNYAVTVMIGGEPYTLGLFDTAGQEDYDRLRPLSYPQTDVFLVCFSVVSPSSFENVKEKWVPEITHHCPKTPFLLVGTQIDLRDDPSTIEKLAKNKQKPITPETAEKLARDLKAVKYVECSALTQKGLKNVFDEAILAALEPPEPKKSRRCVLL
TEST: Bead-based flow cytometry dose response, BODIPY-FL-GTP binding
ASSAY CONDITIONS: Table 6, R3 analogs; read-out: Cdc42 WT Efficacy
Report as a plain number; the unit % is understood.

## Input If you can, please state the reported Emax value of COc1cccc(C2CC(c3ccccc3)=NN2c2ccc(S(N)(=O)=O)cc2)c1 (centres unmarked) [CID 44143701] .
## Output 53

## Input NS(=O)(=O)c1ccc(N2N=C(c3ccccc3)CC2c2ccccc2)cc1 (centres unmarked) [CID 2837695] , same question.
## Output 56

====

SYSTEM TESTED: Cdc42 WT (Homo sapiens, UniProt P60953)
Construct: purchased Cytoskeleton
TEST: Bead-based flow cytometry dose response, BODIPY-FL-GTP binding
ASSAY CONDITIONS: Table 5, R2 analogs; read-out: Cdc42 WT EC50
Each record here notes measured EC50.
Answer format: numeric, µM implied, no suffix.

Sample records with EC50:
>  <COMPOUND>
COc1ccc(C2CC(c3cccc(OC)c3)=NN2c2ccc(S(N)(=O)=O)cc2)cc1 (stereo not shown) [CID 44143698]

>  <SYSTEM TESTED>
Cdc42 WT (Homo sapiens, UniProt P60953)

>  <EC50 (µM)>
1.5

$$$$
>  <COMPOUND>
COc1ccc(C2CC(c3cccs3)=NN2c2ccc(S(N)(=O)=O)cc2)cc1 (stereo not shown) [CID 44143712]

>  <SYSTEM TESTED>
Cdc42 WT (Homo sapiens, UniProt P60953)

>  <EC50 (µM)>
2.9

$$$$
>  <COMPOUND>
COc1ccc(C2=NN(c3ccc(S(N)(=O)=O)cc3)C(c3ccc(OC)cc3)C2)cc1 (stereo not shown) [CID 15201811]

>  <SYSTEM TESTED>
Cdc42 WT (Homo sapiens, UniProt P60953)

>  <EC50 (µM)>
2.6

$$$$
>  <COMPOUND>
COc1ccc(C2CC(c3ccccc3OC)=NN2c2ccc(S(N)(=O)=O)cc2)cc1 (stereo not shown) [CID 44143702]

>  <SYSTEM TESTED>
Cdc42 WT (Homo sapiens, UniProt P60953)

>  <EC50 (µM)>
6

$$$$

With those in mind, consider the next compound.
## Input Need EC50, item COc1ccc(C2CC(c3ccsc3)=NN2c2ccc(S(N)(=O)=O)cc2)cc1 (stereo not shown) [CID 44143713]
## Output 7.3
